method_description: yeast display, Sf9 membrane polyspecificity reagent, FACS + sequencing; frameworks hold sequencing errors
result_type: polyreactivity (PSR sort gate)

# biosequence, result
records = [
    ("QVQLVESGGGLVHAGGSLRLSCAASGSIFGFYTMGWYRQAPGKERELVAAITWSGGRTYYADSVKGRFTISRDNAKNTVYLQMNSLKPEDTAVYYCNRDGRSRWYYASAGYNYWGQGTQVTVSS", "high polyreactivity"),
    ("QVQLVESGGGLVQAGGSLRLSCAASGSIFYKYMGWYRQAPGKERELVAAISWSGGRTYYADSVKGRFTISRDNAKNTVYLQMNSLKPEDTAVYYCNRVVLWRIGDKAFEYWGQGTQVTVSS", "high polyreactivity"),
]

---

method_description: yeast display, Sf9 membrane polyspecificity reagent, FACS + sequencing; frameworks hold sequencing errors

# biosequence, polyreactivity (PSR sort gate)
data = [
    ("QVQLVESVGGLVQAGGSLRLSCAASGSTFAANAMGWYRQAPGKASELVAAITSVGTTYYADSVKGRFTISRDNGKNTVYLQMNSLKPEDTEVYYCNAEYGVWYDYLVVPYDYWGQGTQVTVSS", "low polyreactivity"),
    ("QVQLVESGGGLVQAGGSLRLSCAASGSTFPRNAMGWYRQAPGKERELVAGISRGSSTNYADSVKGRFTISRDNAKNTVYLQMNSLKPEDTAVYYCAAALSVTARLDYWGQGTQVTVSS", "low polyreactivity"),
    ("QVQLVESGGGLVQAGGSLRLSCAASASTFRPYAMGWFRQAPGKEREFVASITWRGGGTYYADSVKGRFTISRDNAKNTVYLQMNSLKPEDTAVFSCAAATQVRGNSLPYGYWGQGTQVTVSS", "high polyreactivity"),
    ("QVQLVESGGGLVQAGGSLRLSCAASGFTIRSYVMGWYRQAPGKEREFVAAISYRGGGTNYADSVKGRFTISRDNAKNTVYLQMNSLKPEDTAVYYCNARSGSSKSGYYNWGQGTQVTVSS", "high polyreactivity"),
    ("QVQLVESGGGLVQAGGSLRLSCAASGRIFILNTMGWYRQAPGKERELVAGISYSGSTYYADSVKGRFTISRDNAKNTVYSQMNSLKPVDTAVYYCAADYDAAWYNDGYYYWGQGTQVTVSS", "low polyreactivity"),
    ("QVQLVESGGGLVHAGGSLRLSCAASGSTFGINAMGWYRQAPGKERELVAAITRGGSTKYADSVKGRFTISRDNAKKTVYLQMNSLKPEDTAVYYCNKRPWHRSSRPFYYWGQGTQVTVSS", "high polyreactivity"),
    ("QVQLVESGGGLVQAGGSLRLSCAASGFTLFGYAMGWYRQAPGKERELVAAITSGDGRTYYADSVKGRFTISRDNAKNTVYLQMNSLKPEDTAVYYCAATRYSSYYYVRHDHWGQGTQVTVSS", "low polyreactivity"),
    ("QVQLVESGGGLVQAGGSLRLSCAASGFTFVGYAMGWYRQAPGKERELVASINYSGGSTYYADSVKGRFTISRDNAKNTVYVQMNSLNPEDTAVYYCAAGGYPWYLRRGGFACYDYWGQGTQVTVSS", "low polyreactivity"),
    ("QVQLVDSGGGLVQAGGSLRLSCAASGITFNLNVMGWYRQAPGKERELVAAISRSGGRTYYADSVKGRFTISRDNAKNTVYLQMNSLKPEDTAVYYCDALSDRSSVPGDYWGQGTQVTVSS", "high polyreactivity"),
    ("QVQLVESGGGLVQAGGILRLSCAASGSTFGFNAMGWYRQAPGKERELVASITSGDSTYYADSVKGRFTISRDNAKNTVYLQMNSLKPEDTAVYYCAKVGGGGQAGDNPILSDYWGQGTQVTVSS", "low polyreactivity"),
    ("QVQRVESGRGLVQAGGRLRLSCAASGFIFDRNVMGLYRQAPGNERELVAAISSSGGSTYYADSVKGRFTISRDNAKNTVYLQMNSLKPEDTAVYYCNRLAYRNMDYWGQGTQVTVSS", "high polyreactivity"),
]

Reference source: the nanobody polyreactivity screen of Harvey et al. (2022)
